METHOD NOTES: Pharmacokinetic analysis of NV-5297 in mice (i.v. and oral, LC-MS/MS)
Format: in vivo
TEST CONTEXT: male, mouse, serum; IV dose at 1 mg/kg, C57BL/6 mice; read-out: Vss
PROPERTY LABEL: Vd (L/kg)
Give just the numeric value; L/kg need not be written.

Measured Vd of `CC(C)(C[C@H](N)C(=O)O)C(F)(F)F` : 1.26

###

METHOD NOTES: Pharmacokinetic analysis of NV-5297 in mice (i.v. and oral, LC-MS/MS)
Assay type: in vivo
TEST CONTEXT: male, mouse, serum; C57BL/6 mice, oral; 160 mg/kg, refers to S1 Table; read-out: time to maximal concentration (tmax) (converted)
PROPERTY LABEL: Tmax (min)
Give just the numeric value; min need not be written.

Measured Tmax of `CC(C)(C[C@H](N)C(=O)O)C(F)(F)F` : 30
